molecular target: human Edg-1(S1P1) (Homo sapiens); construct: expressed in transfected cells; host or cells: HEK-293; assay: Membrane system binding test: inhibition of [33P]-S1P binding to the membrane fraction of Edg-1(S1P1) gene transferred HEK-293 cells; conditions: 10 μM compound; [33P]-S1P 0.1 nM; membrane fraction of Edg-1(S1P1) gene transferred HEK-293 cells; read-out: Membrane system binding test % inhibition (10 μM)
Sequence (P21453 whole entry): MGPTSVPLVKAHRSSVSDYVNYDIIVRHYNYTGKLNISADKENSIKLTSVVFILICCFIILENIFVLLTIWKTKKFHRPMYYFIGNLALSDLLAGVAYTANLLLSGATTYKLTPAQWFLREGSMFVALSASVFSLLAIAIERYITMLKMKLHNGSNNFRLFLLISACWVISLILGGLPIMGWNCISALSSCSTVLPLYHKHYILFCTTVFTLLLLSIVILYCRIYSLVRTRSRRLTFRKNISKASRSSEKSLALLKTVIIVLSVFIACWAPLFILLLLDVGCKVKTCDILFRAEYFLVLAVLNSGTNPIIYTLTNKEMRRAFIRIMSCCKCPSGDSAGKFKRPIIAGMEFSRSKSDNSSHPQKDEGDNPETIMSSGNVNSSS
molecules and their reported inhibition at 10 µM
Provide the reading as a plain figure in %.

Past entries and their recorded results:
{"molecule": "CCn1c(SCCN2CCCC2=O)nnc1[C@@H](C)NS(=O)(=O)c1ccc(Cl)cc1 [Compound 78]", "unit.name": "%", "value.measured": 96.5}
{"molecule": "CCn1c(OC)nnc1[C@@H](C)NS(=O)(=O)c1cccc(C)c1 [Compound 248]", "unit.name": "%", "value.measured": 83.3}
{"molecule": "CCn1c(SCc2ccc(C(F)(F)F)cc2)nnc1C(C)NS(=O)(=O)c1ccc(Cl)cc1 (centres unmarked) [Compound 46]", "unit.name": "%", "value.measured": 99.5}
{"molecule": "CCn1c(OC)nnc1[C@@H](C)NS(=O)(=O)c1ccccc1C(F)(F)F [Compound 260]", "unit.name": "%", "value.measured": 46.9}
{"molecule": "CCn1c(OC)nnc1[C@@H](C)NS(=O)(=O)c1cc(F)ccc1F [Compound 286]", "unit.name": "%", "value.measured": 57.4}

QUERY: I have this molecule here, CCn1c(SCCN2CCNC2=O)nnc1[C@@H](C)NS(=O)(=O)c1ccc(Cl)cc1 [Compound 73] , and I need its recorded inhibition at 10 µM.
RESULT: 98.4

QUERY: Give the measured inhibition at 10 µM of CCn1c(SC2CCOC2)nnc1[C@@H](C)NS(=O)(=O)c1ccc(Cl)cc1 (some centres unmarked) [Compound 49] .
RESULT: 93.9

QUERY: Recorded inhibition at 10 µM of CCOc1nnc([C@@H](C)NS(=O)(=O)c2cc(F)c(F)c(F)c2)n1CC [Compound 450] , please.
RESULT: 93.8

QUERY: Quick one: inhibition at 10 µM of CCOc1nnc([C@@H](C)NS(=O)(=O)c2ccc(C(F)(F)F)cc2)n1CC [Compound 432] ?
RESULT: 82.9

QUERY: Requested field: inhibition at 10 µM. Item: C=CCCCOc1nnc([C@@H](C)NS(=O)(=O)c2ccc(Cl)cc2)n1CC [Compound 384]
RESULT: 93.5

QUERY: I would be grateful if you could share the reported inhibition at 10 µM for CCN(CC)C(=O)COc1nnc([C@@H](C)NS(=O)(=O)c2ccc(Cl)cc2)n1CC [Compound 383] .
RESULT: 66

QUERY: # input molecule: CCSc1nnc([C@@H](C)NS(=O)(=O)c2ccc(Cl)cc2)n1CC [Compound 53] ; wanted: its inhibition at 10 µM
RESULT: 89.3

QUERY: Look up inhibition at 10 µM for this molecule: CCn1c(SCCc2ccc(N(C)C)cc2)nnc1[C@@H](C)NS(=O)(=O)c1ccc(Cl)cc1 [Compound 77]
RESULT: 96.4

QUERY: Need inhibition at 10 µM, item CCn1c(OC)nnc1[C@@H](Cc1ccc(Cl)cc1)NS(=O)(=O)c1ccc(Cl)cc1 [Compound 426]
RESULT: 101

QUERY: inhibition at 10 µM for CCn1c(SCC(C)C)nnc1[C@@H](C)NS(=O)(=O)c1ccc(Cl)cc1 [Compound 33] ?
RESULT: 90

QUERY: Name the recorded inhibition at 10 µM for CCn1c(OC)nnc1[C@@H](C)NS(=O)(=O)c1ccc(F)c(F)c1F [Compound 285] .
RESULT: 63.9

QUERY: Request the reported inhibition at 10 µM associated with CCn1c(OC)nnc1[C@@H](C)NS(=O)(=O)c1cccc(F)c1 [Compound 299]
RESULT: 44.4
